Provide the recorded TD50 for the entries that follow.
system: rodent lifetime carcinogenesis bioassay, tumor incidence TD50; assay: carcinogenic potency in animals, long-term in vivo studies, CPDB compilation (AID 1745844); details: rat; strain Charles River CD (Sprague-Dawley); males; i.p.; site: any site (literature study); lesion: malignant tumor; dosed 26 weeks; study length 78 weeks
Numbered stars: 1 amine (or outer) side, 2 acyl side, 3 side chain; on linkers, the order of the positions; unused ones are H or OH. Bridge positions count the residues as written; N and C are the ends. Square brackets hold non-standard residues; d marks the D form. Peptide text beside a SMILES is read from it. I, II: the chains in the order shown. Actinocin(9to1) = Cc1c2oc3c(C)ccc(C(=O)[*:1])c3nc-2c(C(=O)[*:2])c(N)c1=O; NMeV = CN[C@H](C(=O)O)C(C)C; Sar = CNCC(=O)O
Quick note: give the figure in mg/kg/day, leave out the unit.

Note down TD50 recorded for CN(N=O)C(=O)N[C@@H](C=O)[C@@H](O)[C@H](O)[C@H](O)CO 1.03

Answer with the recorded TD50 of O[C@H]([C@H](O)[C@@H](O)CBr)[C@H](O)CBr only. 5.05

Return the recorded TD50 value; entry: Cc1c2oc3c(C)ccc(C(=O)N[C@@H]4C(=O)N[C@H](C(C)C)C(=O)N5CCC[C@H]5C(=O)N(C)CC(=O)N(C)[C@@H](C(C)C)C(=O)O[C@@H]4C)c3nc-2c(C(=O)N[C@@H]2C(=O)N[C@H](C(C)C)C(=O)N3CCC[C@H]3C(=O)N(C)CC(=O)N(C)[C@@H](C(C)C)C(=O)O[C@@H]2C)c(N)c1=O (I: T[dV]P[Sar][NMeV] / II: T[dV]P[Sar][NMeV]; ester I:1-I:C, II:1-II:C; linker I:N-II:N via Actinocin(9to1)) 0.000708

###

test system: rodent lifetime carcinogenesis bioassay, tumor incidence TD50; assay: carcinogenic potency in animals, long-term in vivo studies, CPDB compilation (AID 1745844); conditions: rat; strain Fischer 344; males; inhaled; site: nasal cavity; lesion: villous polyp; dosed 52 weeks; study length 130 weeks
endpoint name: TD50

Report TD50, nothing else, for this compound: NN 1.36 mg/kg/day

###

test system: rodent lifetime carcinogenesis bioassay, tumor incidence TD50; experiment: carcinogenic potency in animals, long-term in vivo studies, CPDB compilation (AID 1745844); conditions: hamster; strain Syrian Golden; females; by gavage; site: liver; lesion: cholangiocarcinoma; dosed 50 weeks; study length 65 weeks
endpoint name: TD50 (mg/kg/day)
Unit mg/kg/day implied. Number only.

Indicate its recorded TD50; the compound in question is O=NC(=O)CCNCCO 5.58

###

system: rodent lifetime carcinogenesis bioassay, tumor incidence TD50; experiment: carcinogenic potency in animals, long-term in vivo studies, CPDB compilation (AID 1745844); details: rat; strain Wistar; males; in drinking water; site: skin; lesion: epidermoid carcinoma; dosed 87 weeks; study length 100 weeks
endpoint name: TD50

For the compound CC(=O)OC1CC(C)OC(C)O1 (stereo unspecified) , give its reported TD50. 6770 mg/kg/day

###

tested on: rodent lifetime carcinogenesis bioassay, tumor incidence TD50; experiment: carcinogenic potency in animals, long-term in vivo studies, CPDB compilation (AID 1745844); conditions: rat; strain Charles River CD (Sprague-Dawley); females; i.p.; site: liver; lesion: cavernous hemangioma; dosed 26 weeks; study length 78 weeks
endpoint name: TD50 (mg/kg/day)
Quick reminder: number only, in mg/kg/day, skip the unit.

Tell me TD50 reported for CN(N=O)C(=O)N[C@@H](C=O)[C@@H](O)[C@H](O)[C@H](O)CO 5.63
